The measurements presented in this section are drawn from paper PMC11259170.

target: hGPR65 (Homo sapiens, UniProt Q8IYL9); construct: expressed in transfected cells; host or cells: HeLa (ATCC CCL-2), lentiviral transduction, pLX317; experiment: cAMP detection in HeLa expression cell line, hGPR65; assay type: cell-based; details: hGPR EC50 (uM); NA = no activity
Sequence (Q8IYL9 whole entry): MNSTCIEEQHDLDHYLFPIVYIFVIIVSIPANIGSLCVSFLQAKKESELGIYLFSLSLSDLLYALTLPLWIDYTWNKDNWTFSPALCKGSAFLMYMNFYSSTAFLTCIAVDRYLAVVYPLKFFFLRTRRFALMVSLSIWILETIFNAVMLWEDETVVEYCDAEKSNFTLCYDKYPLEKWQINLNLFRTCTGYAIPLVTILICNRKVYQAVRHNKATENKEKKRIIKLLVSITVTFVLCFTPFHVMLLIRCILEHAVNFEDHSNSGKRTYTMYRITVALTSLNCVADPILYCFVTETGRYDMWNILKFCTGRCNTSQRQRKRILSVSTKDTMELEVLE
metric: EC50 (µM)
Express the result in µM but write the number alone.

See these solved cases before continuing.
# line.notation, tested.system, readout.units, EC50
measured = [
    ("Cc1ccc(NC(=O)c2cnn3c(O)cc(-c4ccc(COC(C)C)cc4)nc23)cc1", "hGPR65 (Homo sapiens, UniProt Q8IYL9)", "µM", 0.271),
    ("Cc1ccc(NC(=O)c2cnn3c(O)cc(-c4ccc(F)c(Cl)c4)nc23)cc1", "hGPR65 (Homo sapiens, UniProt Q8IYL9)", "µM", 0.232),
    ("COCc1ccc(-c2cc(O)n3ncc(C(=O)Nc4ccc(C(C)C)cc4)c3n2)cc1", "hGPR65 (Homo sapiens, UniProt Q8IYL9)", "µM", 2.08),
]

Look up and state reported EC50 for Cc1ccc(NC(=O)c2cnn3c(O)cc(-c4ccc(COC(C)C)c(Cl)c4)nc23)cc1
0.577

###

system: GPR65 KO HeLa cells + pLX empty vector; assay: cAMP detection, GPR65 KO HeLa + empty pLX vector (null control); format: cell-based, human; conditions: Homo sapiens, 0.5 h; HeLa GPR65 KO + pLX, pH 7.1, 30 min, normalized to DMSO and 100 μM forskolin
pEC50: −log10 of the molar value.
// pEC50 lookup, one value per entry

# compound, pEC50
records = [
    ("CN1N=C(SCc2ccc(Cl)cc2Cl)Sc2c1cnn(C)c2=O [BTB09089, reference compound]", "< 4.00"),
]

Alright, here's another compound for you.
Give pEC50 for COCc1ccc(-c2cc(O)n3ncc(C(=O)Nc4ccc(C)cc4)c3n2)cc1
< 4.00

###

target: mGPR65 (Mus musculus); construct: expressed in transfected cells; host or cells: HeLa (ATCC CCL-2), lentiviral transduction, pLX317; assay: cAMP detection in HeLa expression cell line, mGPR65; assay type: cell-based; settings: 2nd mGPR column pair; NA = no activity; read-out: mGPR EC50
Sequence (Q61038 whole entry): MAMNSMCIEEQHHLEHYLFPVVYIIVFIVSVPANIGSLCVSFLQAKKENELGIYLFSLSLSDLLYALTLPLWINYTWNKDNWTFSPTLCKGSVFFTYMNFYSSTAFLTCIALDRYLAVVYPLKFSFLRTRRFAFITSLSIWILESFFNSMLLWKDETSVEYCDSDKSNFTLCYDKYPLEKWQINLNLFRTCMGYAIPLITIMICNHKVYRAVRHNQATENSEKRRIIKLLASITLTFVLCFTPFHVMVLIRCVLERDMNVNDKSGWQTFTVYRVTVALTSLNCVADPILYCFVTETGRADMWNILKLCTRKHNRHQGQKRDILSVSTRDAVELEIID
metric: EC50 (nM)
Numeric answer only, unit nM assumed.

Examples from the recorded data:
# compound, readout.units, EC50
measured = [
    ("Cc1ccc(NC(=O)c2cnn3c(O)cc(-c4ccc(N5CCN(C)CC5)c(Cl)c4)nc23)cc1 [BRD5068]", "nM", 1040),
    ("Cc1[nH]c2ccccc2c1Cc1cc(O)n2ncc(C(=O)Nc3ccccc3)c2n1 [BRD5828]", "nM", 785),
    ("Cc1ccc(NC(=O)c2cnn3c(O)cc(-c4cnc(N5CCOCC5)c(Cl)c4)nc23)cc1 [BRD5065]", "nM", 1160),
]

Now consider a different compound.
Respond only with EC50 recorded for Cc1ccc(NC(=O)c2cnn3c(O)cc(-c4ccc(F)cc4)nc23)cc1 [BRD1827]
1290

###

logD for assorted molecules
experiment: Lipophilicity (logD); type: physicochemical; details: pH 7.4; pH7.4; read-out: LogD (pH7.4)

Check the records and state logD for Cc1ccc(NC(=O)c2cnn3c(O)cc(-c4ccc(COC(C)C)cc4)nc23)cc1F [BRD5078]
> 4.96

Complete the entry with logD for Cc1ccc(NC(=O)c2cnn3c(O)cc(-c4ccc(COC(C)C)cc4)nc23)c(F)c1 [BRD5080]
3.65

Please give the documented logD of COCc1ccc(-c2cc(O)n3ncc(C(=O)Nc4ccc(C)cc4)c3n2)cc1 [BRD2813]
> 4.65
